tested on: Escherichia coli TOP10; test: shrunken log2 fold change of peptide-encoding DNA abundance (4.5 h post-induction vs induction); higher = less antimicrobial activity (less host growth inhibition); settings: time post-induction: 4.5 h; library: site-saturation at positions 5, 18, 19, 20;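 further: peptides expressed intracellularly from a pBAD plasmid library in pooled LB shake-flask culture, induced with 0.3% L-arabinose, DNA abundance read by NGS, three biological replicates, DESeq2 with apeglm shrinkage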
METRIC NAME: shrunken log2 fold change
Answer field: number only, no words.

Query block: Query: shrunken log2 fold change; subject: `RRIRKRPPRLPRPRPRPINKPRP`
Result block: -0.328

Query block: Query: shrunken log2 fold change; subject: `RRIRLRPPRLPRPRPRPTPFPRP`
Result block: 0.253

Query block: If you can, please state the reported shrunken log2 fold change value of `RRIRNRPPRLPRPRPRPFNCPRP` .
Result block: -0.112

Query block: Return reported shrunken log2 fold change; argument: `RRIRQRPPRLPRPRPRPIREPRP`
Result block: -0.0225

Query block: Given `RRIRPRPPRLPRPRPRPLGHPRP` , state its recorded shrunken log2 fold change.
Result block: 0.163
